Cited source for all entries: paper PMC7747594

# Tested target: hPAR2 (Homo sapiens, UniProt P55085)
# Sequence (P55085 26-397): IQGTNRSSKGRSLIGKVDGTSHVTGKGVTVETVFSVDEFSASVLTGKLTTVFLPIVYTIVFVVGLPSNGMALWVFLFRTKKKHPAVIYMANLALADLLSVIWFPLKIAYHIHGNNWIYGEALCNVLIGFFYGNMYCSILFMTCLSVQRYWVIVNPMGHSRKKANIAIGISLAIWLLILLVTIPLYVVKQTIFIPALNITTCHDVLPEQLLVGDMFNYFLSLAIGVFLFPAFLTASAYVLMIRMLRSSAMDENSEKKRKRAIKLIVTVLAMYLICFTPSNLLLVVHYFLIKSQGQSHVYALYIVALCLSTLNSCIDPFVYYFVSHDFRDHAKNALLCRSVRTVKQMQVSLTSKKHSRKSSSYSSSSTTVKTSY
# Measurement protocol: pERK1/2 HTRF assay, inhibition of SLIGRL-NH2 in U2OS-hPAR2 cells
# Type: cell-based
Quantity name: IC50 (nM)
Give bare numbers, in nM.

Item under review: CCCc1cc(F)ccc1C(O)c1ncc[nH]1 (stereo not shown) [AZ8838] . Reported IC50?
2000

---

# Tested target: hPAR2 (Homo sapiens, UniProt P55085)
# Measurement protocol: IP1 HTRF assay, inhibition of SLIGRL-NH2 in 1321N1-hPAR2 cells
# Format: cell-based
# Test settings: SLIGRL-NH2, 1321N1-hPAR2 cells; mean ± s.e.m.; read-out: IP1 (hPAR2) pIC50 (converted)
Quantity name: IC50 (nM)
Numbers only, in nM.

Would you please look over these solved cases?
Molecule: C[C@@H](C1CCCCC1)n1c(-c2cc3c(cc2Br)OCO3)nc2cc(C(=O)Nc3ccncc3)ccc21 [AZ2623]
IC50, nM: 81.3
//
Molecule: C[C@@H](C1CCCCC1)n1c(-c2cc3c(cc2Br)OCO3)nc2cc(C(=O)Nc3ccc(C#N)cc3)ccc21 [AZ3451]
IC50, nM: 22.4
//
Molecule: C[C@@H](C1CCOCC1)n1c(-c2cc3c(cc2Br)OCO3)nc2cc(C(=O)Nc3ccc(C#N)cc3)ccc21 [AZ7126]
IC50, nM: 79.4

Continue with the molecule presented below.
Item under review: C[C@@H](C1CCCCC1)n1c(-c2cc3c(cc2Br)OCO3)nc2cc(C(=O)Nc3ccccc3)ccc21 [AZ8935] . Reported IC50?
302
